# Tested on: SARS-CoV-2
# ASSAY EXPLANATION: In vitro antiviral assay, development of cytopathic effects (CPE), Example 1
# Format: cell-based
# EXPERIMENTAL PARAMETERS: Severe acute respiratory syndrome coronavirus 2, Vero C1008, 72 h, 20 PFU/well SARS-CoV-2, VeroE6 cells, 72 h, narrower dilution steps in quadruplicate; read-out: Repeat TCID50 (TCID50 measurement for drugs showing greatest initial efficacy on titration)
OUTCOME MEASURE: IC50 (µM)
Give the number; µM is assumed, so skip it.

Exercise: Query: IC50; subject: CCN(CCO)CCCC(C)Nc1ccnc2cc(Cl)ccc12 (centres unmarked) [Hydroxychloroquine]
Key: 2

###

# System: VeroE6 cells
# ASSAY EXPLANATION: Evaluation of toxicity without virus (CPE and MTT assay), Example 1
# Assay type: cell-based
# EXPERIMENTAL PARAMETERS: absence of virus, 72 h
Structures can show the parent of a compound that is named as a salt.
OUTCOME MEASURE: Minimum Cytotoxicity

Exercise: Find the recorded Minimum Cytotoxicity belonging to Cn1nnc(-c2ccc(-c3ccc(N4C[C@H](COP(=O)(O)O)OC4=O)cc3F)cn2)n1 [Tedizolid phosphate] and report it.
Key: >25 µM

Exercise: Looking for the measured Minimum Cytotoxicity of CC(C)(C)NC(=O)[C@@H]1CN(Cc2cccnc2)CCN1C[C@@H](O)C[C@@H](Cc1ccccc1)C(=O)N[C@H]1c2ccccc2C[C@H]1O [Indinavir sulfate] , can you help?
Key: >25 µM

Exercise: What value of Minimum Cytotoxicity has been reported for the following compound? Nc1nc(=O)c2c([nH]1)NCC(CNc1ccc(C(=O)N[C@@H](CCC(=O)[O-])C(=O)[O-])cc1)N2C=O.[Ca+2] (some centres unmarked) [Folinic acid calcium salt hydrate]
Key: >25 µM

Exercise: Minimum Cytotoxicity for COC(=O)N[C@H](C(=O)N[C@@H](Cc1ccccc1)[C@@H](O)CN(Cc1ccc(-c2ccccn2)cc1)NC(=O)[C@@H](NC(=O)OC)C(C)(C)C)C(C)(C)C [Atazanavir] ?
Key: >25 µM

Exercise: // returns reported Minimum Cytotoxicity for input CC(C)c1nc(CN(C)C(=O)N[C@@H](CCN2CCOCC2)C(=O)N[C@H](CC[C@H](Cc2ccccc2)NC(=O)OCc2cncs2)Cc2ccccc2)cs1 [Cobicistat]
Key: >25 µM

Exercise: Sample Cc1onc(-c2ccccc2)c1C(=O)N1CCN(c2ccc([N+](=O)[O-])cc2Cl)CC1 [Nucleozin] — what was its Minimum Cytotoxicity?
Key: >25 µM

Exercise: What value of Minimum Cytotoxicity has been reported for the following compound? CCCNS(=O)(=O)Nc1ncnc(OCCOc2ncc(Br)cn2)c1-c1ccc(Br)cc1 [Macitentan]
Key: >25 µM

Exercise: Request the reported Minimum Cytotoxicity associated with Cc1cc(/C=C/C#N)cc(C)c1Nc1ccnc(Nc2ccc(C#N)cc2)n1 [Rilpivirine hydrochloride]
Key: >25 µM

Exercise: What value of Minimum Cytotoxicity has been recorded for this entry: CS(=O)(=O)c1cccc(C[C@H](NC(=O)c2c(Cl)cc3c(c2Cl)CCN(C(=O)c2ccc4ccoc4c2)C3)C(=O)O)c1 [Lifitegrast]
Key: >25 µM

Exercise: For CCCc1nc(C)c2c(=O)[nH]c(-c3cc(S(=O)(=O)N4CCN(CC)CC4)ccc3OCC)nn12 [Vardenafil hydrochloride trihydrate] , what is its reported Minimum Cytotoxicity?
Key: >25 µM

Exercise: Query: Minimum Cytotoxicity; subject: Nc1nc(F)nc2c1ncn2[C@@H]1O[C@H](COP(=O)(O)O)[C@@H](O)[C@@H]1O [Fludarabine phosphate]
Key: 25 µM

Exercise: Requested field: Minimum Cytotoxicity. Item: Cc1c(O)cccc1C(=O)N[C@@H](CSc1ccccc1)[C@H](O)CN1C[C@H]2CCCC[C@H]2C[C@H]1C(=O)NC(C)(C)C [Nelfinavir mesylate]
Key: 25 µM

Exercise: Would you kindly share the measured Minimum Cytotoxicity for CCN(CCO)CCCC(C)Nc1ccnc2cc(Cl)ccc12 (centres unmarked) [Hydroxychloroquine] ?
Key: 25 µM

Exercise: Which measured Minimum Cytotoxicity value corresponds to C[C@H]1[C@H](NC(=O)/C(=N\OC(C)(C)C(=O)O)c2csc(N)n2)C(=O)N1S(=O)(=O)O [Aztreonam] ?
Key: >25 µM

###

Provide the recorded IC50 for the entries that follow.
# Test system: SARS-CoV-2
# ASSAY EXPLANATION: microbe, parasite or virus in culture
# Format: cell-based
# EXPERIMENTAL PARAMETERS: Severe acute respiratory syndrome coronavirus 2, Vero C1008, read-out: IC50 (drug used alone)
Structures can show the parent of a compound that is named as a salt.
Please state the figure in nM; there is no need to write the unit.

Exercise: Consider the molecule shown here: `CCC(CC)COC(=O)[C@H](C)N[P@](=O)(OC[C@H]1O[C@@](C#N)(c2ccc3c(N)ncnn23)[C@H](O)[C@@H]1O)Oc1ccccc1` What is its recorded IC50?
Key: 1560

Exercise: Sample Cc1c(O)cccc1C(=O)N[C@@H](CSc1ccccc1)[C@H](O)CN1C[C@H]2CCCC[C@H]2C[C@H]1C(=O)NC(C)(C)C [Nelfinavir mesylate] — what was its IC50?
Key: 390

###

# Test system: SARS-CoV-2
# ASSAY EXPLANATION: In vitro antiviral assay, development of cytopathic effects (CPE), Example 1
# Type: cell-based
# EXPERIMENTAL PARAMETERS: read-out: Repeat TCID50 (TCID50 measurement for drugs showing greatest initial efficacy on titration); 20 PFU/well SARS-CoV-2, VeroE6 cells, 72 h, narrower dilution steps in quadruplicate
Counter-ions that a name gives are not always drawn.
OUTCOME MEASURE: IC50 (µM)
Field format: number, assumed µM, no unit text.

Exercise: I'd like to know its IC50. The compound in question is Cc1c(O)cccc1C(=O)N[C@@H](CSc1ccccc1)[C@H](O)CN1C[C@H]2CCCC[C@H]2C[C@H]1C(=O)NC(C)(C)C [Nelfinavir mesylate]
Key: 2

Where do the numbers come from? From patent US20230124467A1.
